- Tested on: M. abscessus (ATCC 19977)
- ASSAY_REMARKS: MIC by broth microdilution, M. abscessus in cation adjusted Mueller Hinton broth
- Assay type: cell-based
- PROTOCOL_CONDITIONS: Mycobacteroides abscessus, ATCC19977, 96 h; ATCC 19977; cation adjusted Mueller Hinton broth without growth supplement; 30° C., 4 days; read-out: MIC M. abscessus MH
MIC values for the compounds below.
MEASURED_PROPERTY: MIC

[[record]]
compound = "CO[C@H]1/C=C/O[C@@]2(C)Oc3c(C)c(O)c4c(c3C2=O)C2=NC3(CCN(CC(C)C)CC3)NC2=C(NC(=O)/C(C)=C\\C=C\\[C@H](C)[C@H](O)[C@@H](C)[C@@H](O)[C@@H](C)[C@H](OC(=O)N2CCN(CC3CC3)CC2)[C@@H]1C)C4=O"
result = "0.25 µg/mL"

[[record]]
compound = "CO[C@H]1/C=C/O[C@@]2(C)Oc3c(C)c(O)c4c(c3C2=O)C2=NC3(CCN(CC(C)C)CC3)NC2=C(NC(=O)/C(C)=C\\C=C\\[C@H](C)[C@H](O)[C@@H](C)[C@@H](O)[C@@H](C)[C@H](OC(=O)N2CCC(N(C)C)CC2)[C@@H]1C)C4=O"
result = "4 µg/mL"

[[record]]
compound = "CCN1CCC(NC(=O)O[C@H]2[C@H](C)[C@H](O)[C@H](C)[C@@H](O)[C@@H](C)/C=C/C=C(/C)C(=O)NC3=C4NC5(CCN(CC(C)C)CC5)N=C4c4c(c(O)c(C)c5c4C(=O)[C@@](C)(O/C=C/[C@H](OC)[C@H]2C)O5)C3=O)CC1"
result = "2 µg/mL"

[[record]]
compound = "CO[C@H]1/C=C/O[C@@]2(C)Oc3c(C)c(O)c4c(c3C2=O)C2=NC3(CCN(CC(C)C)CC3)NC2=C(NC(=O)/C(C)=C\\C=C\\[C@H](C)[C@H](O)[C@@H](C)[C@@H](O)[C@@H](C)[C@H](OC(=O)N2CCC3(CCN(CC5CCCCC5)C3)C2)[C@@H]1C)C4=O (stereo partly shown)"
result = "0.125 µg/mL"

